# protocol.notes: E. coli acrAB mutant growth effects, primary screen, E. coli filamentation inducers, strain DRC39, OD650, 48 h (AID 1179);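 also: screen aims at cell division blockers that make cells filament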
# settings: E. coli DRC39 delta-acrAB growth, higher = more signal, called active from +8 up or from −8 down
measured.property: z-score
# output: bare number, no unit

Solved entries:
| compound | z-score |
| --- | --- |
| O=C1[C@@H]2[C@@H](CC(COc3ccccc3)=C3[C@@H](CCc4ccccc4)OB(O)C[C@@H]32)C(=O)N1Cc1ccccc1 | -0.915 |
| C=C(COC)/C(=C/C[C@@H](OC(C)=O)c1ccc(CO)o1)c1cc(C(=O)OC)ccc1OC | 0.638 |
| C=C[C@@H](OC)[C@H](OC(=O)Nc1ccc(OC)cc1)c1ccc(OC)c(O)c1 | 0.367 |
| O=C1C2C=CC(C(O)c3ccc4c(c3)OCO4)N(Nc3ccccc3)C2C(=O)N1c1ccccc1 (stereo not drawn) | -0.387 |
| CC1CC/C=C\[C@H]2OC34C=CCN(C(C)(C)C)C(=O)[C@H]3N(C(CO)C(C)C)C(=O)[C@@H]4C2C(=O)O1 (stereo partly drawn) | 0.338 |

Ask | Give the reported z-score for this compound. Cc1ccc(N2C(=O)c3ccccc3[C@](C)(C(=O)NCc3ccccc3)[C@@H]2c2ccc(CO)cc2)nc1
Reply | 0.329

Ask | Give the reported z-score for this compound. CCOC(=O)C1=C[C@@H](C(C)(C)C)N(S(=O)(=O)c2ccc(C)cc2)[C@H]1c1cccc(Cl)c1
Reply | -0.104

Ask | Give the reported z-score for this compound. CCCCNC(=O)c1ccc(C#C[Si](C(C)C)(C(C)C)C(C)C)c(OC(C)=O)c1
Reply | -0.0634

* * *

# protocol.notes: anti-His antibody binders, primary screen, artefact control for SMM control protein annotation, biochemical, small-molecule microarray, 635 nm fluorescence (AID 1128);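 also: score merges feature fluorescence with signal-to-noise for each printed compound spot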
# settings: anti-His Alexa647 antibody binding, higher = more signal
measured.property: composite z-score
# output: bare number, no unit

Solved entries:
| compound | result |
| --- | --- |
| COCCCNC(=O)[C@@]1(c2ccc([N+](=O)[O-])cc2)CC(=O)N(C(C)C)[C@@H]1c1ccc(CO)cc1 | -0.92 |
| COCCOC(=O)N1C(=O)[C@@]2(c3cc(C#CC4=CCCCC4)ccc31)[C@H](C(=O)N1CCCCCCC1)[C@H]1C(=O)O[C@H](c3ccccc3)[C@H](c3ccccc3)N1[C@@H]2c1ccc(OCCO)cc1 | 0.119 |
| COc1ccc([Si](C)(C)[C@@H]2[C@@H](CCn3cc([C@H](O)c4ccccc4)nn3)O[C@]3(C(=O)N(Cc4cccc(N5C(=O)c6cccc7cccc5c67)c4)c4ccccc43)[C@H]2C)cc1 | 0.195 |
| COc1ccc([Si](C)(C)[C@H]2[C@H](CC(=O)N3CCC[C@H]3CO)O[C@@]3(C(=O)N(Cc4ccc(N5CCC5=O)cc4)c4ccccc43)[C@@H]2C)cc1 | 1.54 |
| C=CCNC(=O)[C@@H]1[C@H]2C(=O)O[C@H](c3ccccc3)[C@H](c3ccccc3)N2[C@H](c2ccc(O)cc2)[C@@]12C(=O)N(C(=O)OCCOC)c1ccc(C#CCCO)cc12 | 1.45 |
| COC(=O)c1c2oc(c1C(=O)OC)C(=O)N1CCC[C@H]1Cn1nncc1CN(Cc1ccccc1)C(=O)N[C@H](CO)CC2 | 0.328 |
| CC(C)C(=C=CC[C@@H](O)c1cccc(OCCO)c1)C[C@@H](O)COCc1ccccc1 | 0.292 |
| CC(C)C(=C=CC[C@H](O)c1cccc(OCCO)c1)CCO | -0.0157 |
| C=C[C@@H](OC)[C@H](OC(=O)Nc1ccc(OC)cc1)c1ccc(OC)c(O)c1 | 0.122 |
| COCCOC(=O)N1C(=O)[C@@]2(c3cc(C#CCCO)ccc31)[C@H](C(N)=O)[C@H]1C(=O)O[C@H](c3ccccc3)[C@H](c3ccccc3)N1[C@@H]2c1ccc(OCCO)cc1 | 0.911 |

Ask | Give the reported composite z-score for this compound. CCCCC(=C=CC[C@H](O)c1ccc(OCCO)cc1)C[C@H](O)COCc1ccccc1
Reply | 0.522

Ask | Give the reported composite z-score for this compound. COc1cc(NN2C(C(O)c3ccccc3)C=CC3C(=O)N(C)C(=O)C32)cc(OC)c1OC (stereo not drawn)
Reply | 0.981

Ask | Give the reported composite z-score for this compound. NCCCCCNC(=O)[C@H]1C[C@H]2C(=O)N[C@@H](Cc3ccccc3)C(=O)N2[C@H]1c1ccc(O)cc1
Reply | 1.61

Ask | Give the reported composite z-score for this compound. CCOC(=O)C1=CCC(c2ccccc2)N(S(=O)(=O)c2ccc([N+](=O)[O-])cc2)C1 (stereo not drawn)
Reply | 0.927

Ask | Give the reported composite z-score for this compound. O=C1C[C@@](C(=O)NCc2ccccc2)(c2ccc([N+](=O)[O-])cc2)[C@@H](c2ccc(CO)cc2I)N1CC12CC3CC(CC(C3)C1)C2
Reply | 0.579

Ask | Give the reported composite z-score for this compound. CC(=O)N1CC(C(O)C2C=CC3C(=O)NC(=O)C3N2Nc2ccc(Cl)cc2Cl)c2ccccc21 (stereo not drawn)
Reply | 0.285

Ask | Give the reported composite z-score for this compound. COc1ccc([Si](C)(C)[C@H]2[C@H](CCO)O[C@@]3(C(=O)N(Cc4ccccc4)c4ccc(N5CCOC5=O)cc43)[C@@H]2C)cc1
Reply | 0.783

Ask | Give the reported composite z-score for this compound. CC(=O)NCCCC[C@@H]1NC(=O)[C@H]2C[C@@H](C(=O)NCCCCCNC(=O)CS)[C@@H](c3cccc(OCCO)c3)N2C1=O
Reply | 2.85

Ask | Give the reported composite z-score for this compound. COc1ccc(C(O)C2C=CC3C(=O)N(c4ccccc4)C(=O)C3N2Nc2ccccc2F)cc1 (stereo not drawn)
Reply | 2.35

Ask | Give the reported composite z-score for this compound. C=C(COC)C(=O)CC[C@H](OC(C)=O)c1ccc(OCCO)cc1
Reply | 0.943

Ask | Give the reported composite z-score for this compound. COC(=O)[C@@]1(Cc2ccc(OC)cc2)[C@H]2c3cc(C(=O)N4CCCC4)n(Cc4ccc(OC(F)(F)F)cc4)c3C[C@H]2CN1C(=O)c1ccccc1
Reply | 1.36

Ask | Give the reported composite z-score for this compound. C=C(/C(=C/C[C@H](OC(=O)c1ccncc1)c1cccc(OCCO)c1)c1cnc2ccccc2c1)C(C)C
Reply | 0.291

Ask | Give the reported composite z-score for this compound. C=C(CCCC)C(=O)CC[C@H](OC(C)=O)c1ccc(OCCO)cc1
Reply | 1.45

Ask | Give the reported composite z-score for this compound. CC(C)CCC[C@@H](C)[C@H]1CC[C@@]2(C)C3=C(CC[C@]12C)[C@@]1(C)CC[C@H](OC(=O)c2ccccc2)C(C)(C)C1CC3 (stereo partly drawn)
Reply | 0.226

Ask | Give the reported composite z-score for this compound. COCCOC(=O)N1C(=O)[C@@]2(c3cc(C#CCNC(N)=O)ccc31)[C@H](c1ccc(O)cc1)N1[C@H](c3ccccc3)[C@H](c3ccccc3)OC(=O)[C@H]1[C@@H]2C(=O)N1CCN(c2ncccn2)CC1
Reply | 1.22

Ask | Give the reported composite z-score for this compound. CCCNC(=O)[C@@]1(Sc2ccc(C)cc2)CC(=O)N(C(C)C)[C@@H]1c1ccc(CO)cc1I
Reply | -0.139

Ask | Give the reported composite z-score for this compound. C=CCC(OC(C)=O)[C@@H]1[C@@H](N(Cc2ccc(-c3cccc(C(F)(F)F)c3)o2)C(=O)c2ccc(C)cc2)c2cc(OCCCO)ccc2N1C(=O)Cc1ccc(OC)cc1 (stereo partly drawn)
Reply | -0.139

Ask | Give the reported composite z-score for this compound. COCCOC(=O)N1C(=O)[C@@]2(c3cc(C#CCC(C(=O)OC)C(=O)OC)ccc31)[C@H](C(=O)NC[C@H](O)c1ccccc1)[C@H]1C(=O)O[C@H](c3ccccc3)[C@H](c3ccccc3)N1[C@@H]2c1ccc(OCCO)cc1
Reply | 1.02
